target.or.system: Angiotensin II receptor (AT-1) type-1 (Rattus norvegicus, UniProt P29089+P25095)
Sequence (P29089 whole entry): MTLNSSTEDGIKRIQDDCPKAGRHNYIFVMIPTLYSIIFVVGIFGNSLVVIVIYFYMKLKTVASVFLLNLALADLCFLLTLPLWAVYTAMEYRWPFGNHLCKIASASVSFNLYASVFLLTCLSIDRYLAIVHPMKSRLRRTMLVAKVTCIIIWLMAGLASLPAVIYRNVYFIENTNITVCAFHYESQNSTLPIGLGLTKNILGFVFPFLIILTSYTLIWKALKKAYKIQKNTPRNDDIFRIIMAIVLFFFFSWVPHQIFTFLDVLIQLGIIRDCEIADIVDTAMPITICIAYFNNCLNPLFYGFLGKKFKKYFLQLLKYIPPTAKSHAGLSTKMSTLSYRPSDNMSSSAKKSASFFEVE
Sequence (P25095 whole entry): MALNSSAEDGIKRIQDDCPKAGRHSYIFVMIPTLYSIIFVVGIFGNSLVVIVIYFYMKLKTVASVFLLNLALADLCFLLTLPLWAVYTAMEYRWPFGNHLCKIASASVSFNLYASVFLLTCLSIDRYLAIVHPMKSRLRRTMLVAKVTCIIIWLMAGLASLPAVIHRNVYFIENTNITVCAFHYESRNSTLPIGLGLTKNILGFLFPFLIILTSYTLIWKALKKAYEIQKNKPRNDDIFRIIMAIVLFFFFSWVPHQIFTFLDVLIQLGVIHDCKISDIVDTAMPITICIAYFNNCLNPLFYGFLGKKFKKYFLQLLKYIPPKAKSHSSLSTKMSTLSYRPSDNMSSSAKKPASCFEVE
test.summary: Binding affinity for angiotensin II receptor type 1 using [125I]- Ang II in rat liver membranes
Format: cell membranes, Membrane
Numbered stars: 1 amine (or outer) side, 2 acyl side, 3 side chain; on linkers, the order of the positions; unused ones are H or OH. Bridge positions count the residues as written; N and C are the ends. Square brackets hold non-standard residues; d marks the D form. Peptide text beside a SMILES is read from it. Phe(4-NH2) = Nc1ccc(C[C@H](N)C(=O)O)cc1; CH2 = C([*:1])[*:2]
Record form. Attribute: Ki. Fill in for each entry.

## Task Tell me the measured Ki of `CC(C)[C@H](NC(=O)[C@H](CCCN=C(N)N)NC(=O)[C@@H](N)CC(=O)O)C(=O)N[C@@H](Cc1ccc(O)cc1)C(=O)Nc1ccc2c(c1)CN(CC(=O)N[C@@H](Cc1ccccc1)C(=O)O)C(=O)[C@H](Cc1c[nH]cn1)N2` , please.
## Result > 10 µM

## Task Tell me the measured Ki of N=C(N)NCCC[C@H](NC(=O)[C@@H](N)CC(=O)O)C(=O)N[C@H]1CSCSC[C@@H](C(=O)N[C@@H](Cc2cnc[nH]2)C(=O)N2CCC[C@H]2C(=O)N[C@@H](Cc2ccccc2)C(=O)O)NC(=O)[C@H](Cc2ccc(O)cc2)NC1=O (H-DRCYCHPF-OH; linker 3-5 via CH2) , please.
## Result 0.044 µM

## Task Tell me the measured Ki of CC[C@@H](C)[C@@H](C(=O)N[C@@H](Cc1c[nH]cn1)C(=O)N1CCC[C@H]1C(=O)N[C@@H](Cc1ccccc1)C(=O)O)N1Cc2cc(NC(=O)[C@H](CCCN=C(N)N)NC(=O)[C@@H](N)CC(=O)O)ccc2[C@@H](Cc2ccc(O)cc2)C1=O (single isomer, unassigned; diastereomer a) , please.
## Result > 10 µM

## Task Tell me the measured Ki of CC[C@H](C)[C@H](NC(=O)[C@H](Cc1ccc(O)cc1)NC(=O)[C@@H](NC(=O)[C@H](CCCN=C(N)N)NC(=O)[C@@H](N)CC(=O)O)C(C)C)C(=O)N[C@@H](Cc1ccc(N)cc1)C(=O)N1CCC[C@H]1C(=O)N[C@@H](Cc1ccccc1)C(=O)O (H-DRVYI[Phe(4-NH2)]PF-OH) , please.
## Result > 10 µM

## Task Tell me the measured Ki of `CC(C)[C@H](NC(=O)[C@H](C)NC(=O)[C@@H](N)CC(=O)O)C(=O)Nc1ccc2c(c1)CN(CC(=O)N[C@@H](Cc1c[nH]cn1)C(=O)N1CCC[C@H]1C(=O)N[C@@H](Cc1ccccc1)C(=O)O)C(=O)[C@H](Cc1ccc(O)cc1)N2` , please.
## Result > 10 µM
